Tested on: P. aeruginosa PAO1 cells
PROCEDURE SUMMARY: LC–MS quantification of intracellular accumulation, PAO1;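 further: slope of accumulation versus external concentration fitted as a line through zero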
SETTINGS: 1 min incubation, 10-80 µM
Structures can show the parent of a compound that is named as a salt.
MEASURED ENDPOINT: Concentration slopes of accumulation, PAO1_1 min
Note: the reply should be a number with no unit written.

## Input Could you tell me which Concentration slopes of accumulation, PAO1_1 min is on file for `COCCCC/C(=N\OCCN)c1ccc(C(F)(F)F)cc1` ?
## Output 3.55

## Input Consider next the compound COc1c(N2C[C@@H]3CCCN[C@@H]3C2)c(F)cc2c(=O)c(C(=O)O)cn(C3CC3)c12 [OU-0000626, MOXIFLOXACIN HYDROCHLORIDE] in the same way.
## Output 1.19

## Input Consider next the compound `C[C@@H]1CN(c2c(F)c(N)c3c(=O)c(C(=O)O)cn(C4CC4)c3c2F)C[C@H](C)N1` in the same way.
## Output 4.89

## Input Consider next the compound CNC(=C[N+](=O)[O-])NCCSCc1ccc(CN(C)C)o1 [OU-0000840, Ranitidine HCl] in the same way.
## Output 3.41

## Input Consider next the compound COc1ccc(CCN(C)CCCC(C#N)(c2ccc(OC)c(OC)c2)C(C)C)cc1OC (stereo not shown) [OU-0000734, Verapamil HCl] in the same way.
## Output 12.96

## Input Consider next the compound CCn1cc(C(=O)O)c(=O)c2cc(F)c(N3CCNC(C)C3)c(F)c21 (stereo not shown) in the same way.
## Output 3.37

## Input Consider next the compound CC(C)NCC(O)c1ccc(NS(C)(=O)=O)cc1 (stereo not shown) [OU-0032507, Sotalol HCl] in the same way.
## Output 4.31

* * *

Kindly supply the reported Concentration slopes of accumulation, PΔ3-Pore_40min values for the records listed here.
Test system: P. aeruginosa PΔ3-Pore cells
PROCEDURE SUMMARY: LC–MS quantification of intracellular accumulation, PΔ3-Pore;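 further: slope of accumulation versus external concentration fitted as a line through zero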
SETTINGS: 40 min incubation, 10-80 µM
Structures can show the parent of a compound that is named as a salt.
Note: the reply should be a number with no unit written.

## Input Could you tell me which Concentration slopes of accumulation, PΔ3-Pore_40min is on file for CC(C)NCC(O)c1ccc(NS(C)(=O)=O)cc1 (centres unmarked) [OU-0032507, Sotalol HCl] ?
## Output 9.07

## Input Consider next the molecule CC[C@H]1CN2CCc3cc(OC)c(OC)cc3[C@@H]2C[C@@H]1C[C@H]1NCCc2cc(OC)c(OC)cc21.Cl.Cl [OU-0032504, Emetine DIHCl] in the same way.
## Output 1.61

## Input Consider next the molecule C=CCN1CC(CCCC)N(C(=O)OC(C)(C)C)C(Cc2ccccc2)C1=O (centres unmarked) [OU-0032511] in the same way.
## Output 4.27

## Input Consider next the molecule COc1ccc(CCN(C)CCCC(C#N)(c2ccc(OC)c(OC)c2)C(C)C)cc1OC (centres unmarked) [OU-0000734, Verapamil HCl] in the same way.
## Output 18.38

## Input Consider next the molecule NC(N)=Nc1nc(CSCCC(N)=NS(N)(=O)=O)cs1 [OU-0000841, Famotidine] in the same way.
## Output 4.45

## Input Consider next the molecule COc1cccc2c1C(=O)c1c(O)c3c(c(O)c1C2=O)C[C@@](O)(C(=O)CO)C[C@@H]3O[C@H]1C[C@H](N)[C@H](O)[C@H](C)O1 [OU-0000835, Doxorubicin] in the same way.
## Output 2.13

## Input Consider next the molecule COCCCC/C(=N\OCCN)c1ccc(C(F)(F)F)cc1 [OU-0000742, Fluvoxamine] in the same way.
## Output 6.18

## Input Consider next the molecule CS(=O)(=O)O.C[C@H]1COc2c(C3(N)CC3)c(F)cc3c(=O)c(C(=O)O)cn1c23 [OU-0000627, PAZUFLOXACIN MESYLATE] in the same way.
## Output 5.72
